Ref: ChEMBL document CHEMBL2016546

Here, each record is paired with measured logP data.
- procedureText: Partition coefficient, log P pf the compound
- Assay type: physicochemical
- condition: octanol/water; read-out: logP
// print number alone

{"structure": "CC1=C/C(=N\\NC(=O)c2cccnc2)c2c(O)cccc2C1=O", "logP": 3.13}

Data request: Answer with reported logP of "CC1=C/C(=N\NC(=O)c2ccncc2)c2c(O)cccc2C1=O"
Data returned: 2.86

Data request: Dear colleague, please send me the reported logP for "CC1=C/C(=N\NC(=O)c2ccccc2O)c2c(O)cccc2C1=O" when you can.
Data returned: 4.17

Data request: Name the recorded logP of the compound listed here: "CC1=C/C(=N\NC(=O)c2ccccc2)c2c(O)cccc2C1=O"
Data returned: 4
